Data credit: patent US12122763B2

- Target system: Androgen Receptor (AR) protein (Homo sapiens, UniProt P10275, T878A)
- Construct: endogenous in cells; host or cells: LNCaP
- Sequence (P10275 whole entry T878A): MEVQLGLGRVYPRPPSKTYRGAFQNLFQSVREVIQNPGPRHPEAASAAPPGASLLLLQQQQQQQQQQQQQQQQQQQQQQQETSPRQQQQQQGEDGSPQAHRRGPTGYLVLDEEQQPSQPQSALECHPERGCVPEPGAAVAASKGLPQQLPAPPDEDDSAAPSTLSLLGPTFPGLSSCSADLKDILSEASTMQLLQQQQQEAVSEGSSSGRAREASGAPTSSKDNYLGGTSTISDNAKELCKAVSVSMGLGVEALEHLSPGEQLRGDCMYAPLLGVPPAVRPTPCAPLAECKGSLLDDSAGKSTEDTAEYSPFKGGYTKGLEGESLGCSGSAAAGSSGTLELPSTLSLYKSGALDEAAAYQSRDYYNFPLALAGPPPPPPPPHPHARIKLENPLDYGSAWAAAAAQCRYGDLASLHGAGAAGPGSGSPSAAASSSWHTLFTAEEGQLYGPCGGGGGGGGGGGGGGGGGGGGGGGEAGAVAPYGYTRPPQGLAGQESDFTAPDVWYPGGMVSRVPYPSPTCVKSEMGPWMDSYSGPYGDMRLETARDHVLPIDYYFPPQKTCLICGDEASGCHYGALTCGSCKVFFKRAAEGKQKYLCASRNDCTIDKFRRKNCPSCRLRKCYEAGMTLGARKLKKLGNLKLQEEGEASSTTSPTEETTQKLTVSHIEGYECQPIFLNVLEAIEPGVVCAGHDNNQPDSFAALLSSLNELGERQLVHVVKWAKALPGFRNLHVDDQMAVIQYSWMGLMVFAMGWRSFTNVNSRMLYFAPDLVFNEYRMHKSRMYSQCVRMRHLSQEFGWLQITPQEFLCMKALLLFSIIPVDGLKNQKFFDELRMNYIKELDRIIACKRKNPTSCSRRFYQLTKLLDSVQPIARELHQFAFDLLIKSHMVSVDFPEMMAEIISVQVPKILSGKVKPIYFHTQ
- Sequence (Q96SW2 whole entry partner): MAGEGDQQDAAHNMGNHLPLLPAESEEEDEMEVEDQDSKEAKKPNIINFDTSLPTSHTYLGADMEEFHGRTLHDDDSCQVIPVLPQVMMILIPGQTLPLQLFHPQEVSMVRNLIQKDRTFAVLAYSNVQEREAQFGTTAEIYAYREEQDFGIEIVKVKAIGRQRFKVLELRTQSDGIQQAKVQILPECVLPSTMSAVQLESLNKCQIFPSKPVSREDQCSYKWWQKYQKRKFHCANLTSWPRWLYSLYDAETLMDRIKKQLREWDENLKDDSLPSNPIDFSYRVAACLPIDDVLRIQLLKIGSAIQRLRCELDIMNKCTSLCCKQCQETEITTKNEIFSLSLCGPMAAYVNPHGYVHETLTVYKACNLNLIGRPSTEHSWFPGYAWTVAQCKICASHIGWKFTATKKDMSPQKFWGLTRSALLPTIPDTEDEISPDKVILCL
- Test: Androgen Receptor (AR) protein degradation assay in LNCaP cells, western blotting
- Assay type: cell-based
- Condition set: 20 h, 1 μM compound
Value type: inhibition at 1 µM (%)
Answers are plain numbers, in %.

Here is how some compounds turned out for inhibition at 1 µM.
Compound	Target system	inhibition at 1 µM [%]
N#Cc1ccc(N2CCC(C(=O)Nc3ccc(CCN4CCC(CN5CCN(c6ccc7c(c6)C(=O)N(C6CCC(=O)NC6=O)C7=O)CC5)CC4)cn3)CC2)cc1C(F)(F)F (centres unmarked)	Androgen Receptor (AR) protein (Homo sapiens, UniProt P10275, T878A)	95
N#Cc1ccc(N2CCC(C(=O)Nc3ccc(N4CC5(CCN(CC6CN(c7ccc8c(c7)C(=O)N(C7CCC(=O)NC7=O)C8=O)C6)CC5)C4)cn3)CC2)cc1Cl (centres unmarked)	Androgen Receptor (AR) protein (Homo sapiens, UniProt P10275, T878A)	96
N#Cc1ccc(N2CCC(C(=O)Nc3ccc(N4CCC(CCN5CC6CN(c7ccc8c(c7)C(=O)N(C7CCC(=O)NC7=O)C8=O)CC6C5)CC4)cn3)CC2)cc1C(F)(F)F (centres unmarked)	Androgen Receptor (AR) protein (Homo sapiens, UniProt P10275, T878A)	95
N#Cc1ccc(N2CCC(C(=O)Nc3ccc(N4CCN(C(=O)CCCCCNc5ccc6c(c5)C(=O)N(C5CCC(=O)NC5=O)C6=O)CC4)cn3)CC2)cc1C(F)(F)F (centres unmarked)	Androgen Receptor (AR) protein (Homo sapiens, UniProt P10275, T878A)	67

Now examine the next entry.
Input: Could you share what inhibition at 1 µM was measured for C[C@@H]1CN(C2CCN(c3ccc4c(c3)C(=O)N(C3CCC(=O)NC3=O)C4=O)CC2)CCN1CC1CCN(c2ccc(NC(=O)C3CCN(c4ccc(C#N)c(C(F)(F)F)c4)CC3)nc2)CC1 (some centres unmarked) , tested on Androgen Receptor (AR) protein (Homo sapiens, UniProt P10275, T878A)?
Output: 94

---

- Target system: Androgen Receptor (AR) protein (Homo sapiens, UniProt P10275, T878A)
- Construct: endogenous in cells; host or cells: LNCaP
- Test: Androgen Receptor (AR) protein degradation assay in LNCaP cells, western blotting
- Type: cell-based
- Condition set: 20 h, 0.01 μM compound
Entry flag: True if inhibition at 0.01 µM reaches 60%; False if it does not.

Compound	Target system	Label value
N#Cc1ccc(N2CCC(C(=O)Nc3ccc(N4CCC(CCN5CCN(C6CN(c7ccc8c(n7)CN(C7CCC(=O)NC7=O)C8=O)C6)CC5)CC4)cn3)CC2)cc1C(F)(F)F (centres unmarked) [Example 100]	Androgen Receptor (AR) protein (Homo sapiens, UniProt P10275, T878A)	False
N#Cc1ncc(N2CCC(C(=O)Nc3ccc(N4CCC(CN5CC6(CCN(c7ccc8c(c7)C(=O)N(C7CCC(=O)NC7=O)C8=O)CC6)C5)CC4)cn3)CC2)cc1C(F)(F)F (centres unmarked) [Example 57]	Androgen Receptor (AR) protein (Homo sapiens, UniProt P10275, T878A)	False
N#Cc1ccc(N2CCC(C(=O)Nc3ccc(N4CCC(OCCN5CCN(c6ccc7c(c6)C(=O)N(C6CCC(=O)NC6=O)C7=O)CC5)CC4)cn3)CC2)cc1Cl (centres unmarked) [Example 151]	Androgen Receptor (AR) protein (Homo sapiens, UniProt P10275, T878A)	False
C[C@@H]1CN(CC2CCN(c3ccc4c(n3)CN(C3CCC(=O)NC3=O)C4=O)CC2)CCN1CC1CCN(c2ccc(NC(=O)C3CCN(c4ccc(C#N)c(C(F)(F)F)c4)CC3)nc2)CC1 (some centres unmarked) [Example 44]	Androgen Receptor (AR) protein (Homo sapiens, UniProt P10275, T878A)	True
N#Cc1ccc(N2CCC(C(=O)Nc3ccc(N4CCC(CN5CCN(CC6CCN(c7ccc8c(c7)C(=O)N(C7CCC(=O)NC7=O)C8=O)CC6)CC5)CC4)cn3)CC2)cc1Cl (centres unmarked) [Example 7]	Androgen Receptor (AR) protein (Homo sapiens, UniProt P10275, T878A)	True

Input: Would you say N#Cc1ccc(N2CCC(C(=O)Nc3ccc(OCCN4CCN(CC5CCN(c6ccc7c(c6)C(=O)N(C6CCC(=O)NC6=O)C7=O)CC5)CC4)cn3)CC2)cc1C(F)(F)F (centres unmarked) [Example 168] shows inhibition at 0.01 µM at minimum 60%?
Output: True

Input: Would you say C[C@@H]1CN(C2CCN(c3ccc4c(n3)CN(C3CCC(=O)NC3=O)C4=O)CC2)CCN1CC1CCN(c2ccc(NC(=O)C3CCN(c4ccc(C#N)c(C(F)(F)F)c4)CC3)nc2)CC1 (some centres unmarked) [Example 43] shows inhibition at 0.01 µM at minimum 60%?
Output: True

Input: Would you say N#Cc1ccc(N2CCC(C(=O)Nc3ccc(N4CCC(CN5CCN(CC6CCN(c7cc8c(cc7F)C(=O)N(C7CCC(=O)NC7=O)C8=O)CC6)CC5)CC4)cn3)CC2)cc1C(F)(F)F (centres unmarked) [Example 18] shows inhibition at 0.01 µM at minimum 60%?
Output: False

Input: Would you say N#Cc1ccc(N2CCC(C(=O)Nc3ccc(N4CCC(OCCN5CCN(c6ccc7c(c6)C(=O)N(C6CCC(=O)NC6=O)C7=O)CC5)CC4)cn3)CC2)cc1C(F)(F)F (centres unmarked) [Example 150] shows inhibition at 0.01 µM at minimum 60%?
Output: False

---

- Target system: Androgen Receptor (AR) protein (Homo sapiens, UniProt P10275, T878A)
- Construct: endogenous in cells; host or cells: LNCaP
- Test: Androgen Receptor (AR) protein degradation assay in LNCaP cells, western blotting
- Type: cell-based
- Condition set: 20 h, 10 μM compound
Value type: inhibition at 10 µM (%)
Answers are plain numbers, in %.

Here is how some molecules turned out for inhibition at 10 µM.
Molecule	Target system	Readout number
N#Cc1ccc(N2CCC(C(=O)Nc3ccc(N4CCC(CN5CC6(CCN(c7ccc8c(c7)C(=O)N(C7CCC(=O)NC7=O)C8=O)CC6)C5)CC4)cn3)CC2)cc1C(F)(F)F (centres unmarked) [Example 49]	Androgen Receptor (AR) protein (Homo sapiens, UniProt P10275, T878A)	99
N#Cc1ccc(N2CCN(C(=O)Nc3ccc(N4CCC(CN5CC6(CCN(c7ccc8c(c7)C(=O)N(C7CCC(=O)NC7=O)C8=O)CC6)C5)CC4)nc3)CC2)cc1Cl (centres unmarked) [Example 104]	Androgen Receptor (AR) protein (Homo sapiens, UniProt P10275, T878A)	59
N#Cc1ccc(N2CCC(C(=O)Nc3ccc(N4CCC(CN5CC6(CCN(c7ccc8c(c7)C(=O)N(C7CCC(=O)NC7=O)C8=O)CC6)C5)CC4)cn3)CC2)cc1Cl (centres unmarked) [Example 50]	Androgen Receptor (AR) protein (Homo sapiens, UniProt P10275, T878A)	98
N#Cc1ccc(N2CCC(C(=O)Nc3ccc(N4CCC(CN5CCC6(CC5)CCN(c5ccc7c(c5)C(=O)N(C5CCC(=O)NC5=O)C7=O)CC6)CC4)cn3)CC2)cc1Cl (centres unmarked) [Example 69]	Androgen Receptor (AR) protein (Homo sapiens, UniProt P10275, T878A)	82

Now examine the next entry.
Input: Suppose we examine the molecule N#Cc1ccc(N2CCC(C(=O)Nc3ccc(N4CCC(CN5CCN(c6ccc7c(c6)C(=O)N(C6CCC(=O)NC6=O)C7=O)CC5)CC4)cn3)CC2)cc1Cl (centres unmarked) [Example 2] ; what inhibition at 10 µM value has been reported?
Output: 96

---

- Target system: Androgen Receptor (AR) protein (Homo sapiens, UniProt P10275, T878A)
- Construct: endogenous in cells; host or cells: LNCaP
- Test: Androgen Receptor (AR) protein degradation assay in LNCaP cells, western blotting
- Type: cell-based
- Condition set: 20 h, 0.01 μM compound
Please provide measured inhibition at 0.01 µM for the entries that follow.
Answers are plain numbers, in %.

Here is how some compounds turned out for inhibition at 0.01 µM.
Compound	Target system	Value type	Readout number
N#Cc1ccc(N2CCC(C(=O)Nc3ccc(C#CCN4CC5(CCN(c6ccc7c(c6)C(=O)N(C6CCC(=O)NC6=O)C7=O)CC5)C4)cn3)CC2)cc1C(F)(F)F (stereo not drawn) [Example 134]	Androgen Receptor (AR) protein (Homo sapiens, UniProt P10275, T878A)	inhibition at 0.01 µM	56
N#Cc1ccc(N2CCC(C(=O)Nc3ccc(N4CCN(CCCCOc5ccc6c(c5)C(=O)N(C5CCC(=O)NC5=O)C6=O)CC4)cn3)CC2)cc1Cl (stereo not drawn) [Example 116]	Androgen Receptor (AR) protein (Homo sapiens, UniProt P10275, T878A)	inhibition at 0.01 µM	24

Now examine the next entry.
Input: Suppose we examine the compound N#Cc1ncc(N2CCC(F)(C(=O)Nc3ccc(N4CCC(CN5CC6(CCN(c7ccc8c(c7)C(=O)N(C7CCC(=O)NC7=O)C8=O)CC6)C5)CC4)cn3)CC2)cc1C(F)(F)F (stereo not drawn) [Example 58] ; what inhibition at 0.01 µM value has been reported?
Output: 16
